Listed below: IC50 values for each entry.
Target or system: recombinant human GST-SYK (Homo sapiens)
Construct: purchased Carna Biosciences 08-176
Experiment summary: Homogeneous Time-Resolved Fluorescence (HTRF) assay for the recombinant human Syk enzyme
Format: biochemical
Measurement conditions: GST-hSYK 5 pM, ATP 25 μM, IC50 rated in classes, read-out: rhSYK Activity

Consider the reported IC50 for these molecules:
{"Molecule": "Cc1cc(Nc2nccc(C(F)(F)F)n2)cc(-c2cnc(NC3(C(=O)O)CC3)nc2)c1 [Example 2.3]", "Test result": "< 0.1 µM"}
{"Molecule": "COCC1CN(c2ncc(-c3cc(C)cc(Nc4nccc(C(F)(F)F)n4)c3)cn2)CCO1 (centres unmarked) [Example 2.25]", "Test result": "0.1 to 1 µM"}

Form field: reported IC50 of Cc1cc(Nc2nccc(C(F)(F)F)n2)cc(-c2cnc(CCC(=O)O)cn2)c1 [Example 3.8]
< 0.1 µM

What do you get for Cc1cc(Nc2nccc(C(F)(F)F)n2)cc(-c2cnc(NCC(C)O)nc2)c1 (centres unmarked) [Example 2.60] ?
< 0.1 µM

What do you get for CCOC(=O)CCc1cnc(-c2cc(C)cc(Nc3nccc(C(F)(F)F)n3)c2)cn1 [Example 3.7] ?
0.1 to 1 µM

What do you get for Cc1cc(Nc2nccc(C(F)(F)F)n2)cc(-c2cncnc2)c1 [Example 1.1] ?
< 0.1 µM

What do you get for Cc1cc(Nc2nccc(C(F)F)n2)cc(-c2cnc([C@@H](C)[C@H]3CC[C@H](C(=O)O)CC3)nc2)c1 (single isomer, unassigned) [Example 6.2] ?
< 0.1 µM

What do you get for CCOC(=O)CCc1cnc(-c2cc(C)cc(Nc3nccc(C)n3)c2)cn1 [Example 3.9] ?
0.1 to 1 µM

* * *

Listed below: pIC50 values for each entry.
Target or system: recombinant human GST-SYK (Homo sapiens, UniProt P43405)
Construct: purchased Carna Biosciences 08-176
Experiment summary: Homogeneous Time-Resolved Fluorescence (HTRF) assay for the recombinant human Syk enzyme
Assay type: biochemical
Measurement conditions: GST-hSYK 5 pM, ATP 25 μM, IC50 rated in classes, read-out: rhSYK Activity
pIC50: −log10 of the molar value.

Consider the reported pIC50 for these molecules:
{"Molecule": "COc1ccnc(Nc2cc(C)cc(-c3cc(CCC(=O)O)ncn3)c2)n1 [Example 3.47]", "pIC50": "6.00 to 7.00"}
{"Molecule": "Cc1cc(Nc2nccc(C(F)(F)F)n2)cc(-c2cnc(NCC3COCCO3)nc2)c1 (stereo not shown) [Example 2.19]", "pIC50": "> 7.00"}
{"Molecule": "Cc1cc(Nc2nccc(C(F)(F)F)n2)cc(-c2ccc(N(CCN(C)C)C(=O)N(C)C)nn2)c1 [Example 3.35]", "pIC50": "6.00 to 7.00"}

Then this molecule:
Form field: reported pIC50 of Cc1cc(Nc2nccc(C3CC3)n2)cc(-c2cncc(CCC(=O)O)n2)c1 [Example 3.22]
> 7.00

* * *

Target or system: recombinant human GST-SYK (Homo sapiens, UniProt P43405)
Construct: purchased Carna Biosciences 08-176
Experiment summary: Homogeneous Time-Resolved Fluorescence (HTRF) assay for the recombinant human Syk enzyme
Format: biochemical
Measurement conditions: GST-hSYK 5 pM, ATP 25 μM, IC50 rated in classes, read-out: rhSYK Activity
Reported property: IC50

Consider the reported IC50 for these molecules:
{"Molecule": "Cc1cc(Nc2nccc(C(F)(F)F)n2)cc(-c2cnc(OC3CCC(C(=O)O)CC3)nc2)c1 (centres unmarked) [Example 3.58]", "Test result": "< 100 nM"}
{"Molecule": "Cc1cc(Nc2nccc(C(F)(F)F)n2)cc(-c2cnc(N(C)CC(O)CO)nc2)c1 (centres unmarked)", "Test result": "< 100 nM"}
{"Molecule": "Cc1cc(Nc2nccc(C(F)F)n2)cc(-c2cnc([C@H](C)[C@H]3CC[C@H](C(=O)O)[C@H](C)C3)nc2)c1 (single isomer, unassigned) [Example 7.4]", "Test result": "< 100 nM"}
{"Molecule": "CC(=O)NCCCNc1ncc(-c2cc(C)cc(Nc3nccc(C(F)(F)F)n3)c2)cn1", "Test result": "< 100 nM"}
{"Molecule": "Cc1cc(Nc2nccc(C(F)(F)F)n2)cc(-c2cc(CCC(=O)O)ncn2)c1", "Test result": "100 to 1000 nM"}
{"Molecule": "Cc1cc(Nc2nccc(C(F)(F)F)n2)cc(-c2ccncn2)c1", "Test result": "100 to 1000 nM"}

Form field: reported IC50 of COCC1CCN(c2ncc(-c3cc(C)cc(Nc4nccc(C(F)(F)F)n4)c3)cn2)C1 (centres unmarked)
100 to 1000 nM

What do you get for `Cc1cc(Nc2nccc(C(F)(F)F)n2)cc(-c2ccc(OC(C)(C)C(=O)O)nn2)c1` ?
< 100 nM

* * *

Target or system: recombinant human GST-SYK (Homo sapiens, UniProt P43405)
Construct: purchased Carna Biosciences 08-176
Experiment summary: Homogeneous Time-Resolved Fluorescence (HTRF) assay for the recombinant human Syk enzyme
Type: biochemical
Measurement conditions: GST-hSYK 5 pM, ATP 25 μM, IC50 rated in classes, read-out: rhSYK Activity
Reported property: IC50

{"Compound": "COc1ccnc(Nc2cc(C)cc(-c3cnc(CCC(=O)O)cn3)c2)n1", "Target or system": "recombinant human GST-SYK (Homo sapiens, UniProt P43405)", "IC50": "< 100 nM"}

Form field: reported IC50 of `O=C(O)CCc1cncc(-c2cccc(Nc3nccc(C(F)(F)F)n3)c2)n1`
100 to 1000 nM

What do you get for `Cc1cc(Nc2nccc(C3CC3)n2)cc(-c2cc(CCC(=O)O)ncn2)c1` ?
100 to 1000 nM

* * *

Target or system: recombinant human GST-SYK (Homo sapiens, UniProt P43405)
Construct: purchased Carna Biosciences 08-176
Experiment summary: Homogeneous Time-Resolved Fluorescence (HTRF) assay for the recombinant human Syk enzyme
Type: biochemical
Measurement conditions: GST-hSYK 5 pM, ATP 25 μM, IC50 rated in classes, read-out: rhSYK Activity
Listed below: IC50 values for each entry.

{"Compound": "Cc1cc(Nc2nccc(C(F)(F)F)n2)cc(-c2cnc(NC3(CO)CCCC3)nc2)c1 [Example 2.36]", "IC50": "< 100 nM"}
{"Compound": "Cc1cc(Nc2nccc(C(F)(F)F)n2)cc(-c2cnc(NCCC(=O)O)nc2)c1 [Example 2.8]", "IC50": "< 100 nM"}
{"Compound": "CCCN1CCCN(c2ncc(-c3cc(C)cc(Nc4nccc(C(F)(F)F)n4)c3)cn2)CC1 [Example 2.68]", "IC50": "< 100 nM"}
{"Compound": "Cc1cc(Nc2nccc(C(F)(F)F)n2)cc(-c2cnc(NC(C)c3ccccn3)nc2)c1 (centres unmarked) [Example 2.21]", "IC50": "< 100 nM"}
{"Compound": "Cc1cc(Nc2nccc(C(F)F)n2)cc(-c2cnc([C@@H](C)[C@H]3CC[C@H](C(=O)O)CC3)nc2)c1 (single isomer, unassigned) [Example 6.1]", "IC50": "< 100 nM"}
{"Compound": "CCCOC1CCCN(c2ncc(-c3cc(C)cc(Nc4nccc(C(F)(F)F)n4)c3)cn2)C1 (centres unmarked) [Example 2.53]", "IC50": "100 to 1000 nM"}
{"Compound": "Cc1cc(Nc2nccc(C)n2)cc(-c2cncc(CCC(=O)O)n2)c1 [Example 3.20]", "IC50": "100 to 1000 nM"}

Then this compound:
Notebook entry, recombinant human GST-SYK (Homo sapiens, UniProt P43405) assay: IC50 of Cc1cc(Nc2nccc(C(F)(F)F)n2)cc(-c2cnc(NCC(O)CO)nc2)c1 (centres unmarked) [Example 2.13] = ?
< 100 nM

* * *

Listed below: IC50 values for each entry.
Target or system: recombinant human GST-SYK (Homo sapiens, UniProt P43405)
Construct: purchased Carna Biosciences 08-176
Experiment summary: Homogeneous Time-Resolved Fluorescence (HTRF) assay for the recombinant human Syk enzyme
Type: biochemical
Measurement conditions: GST-hSYK 5 pM, ATP 25 μM, IC50 rated in classes, read-out: rhSYK Activity

{"Compound": "Cc1cc(Nc2nccc(C(F)(F)F)n2)cc(-c2cnc(N(C)C(=O)CC#N)nc2)c1", "IC50": "< 0.1 µM"}

Then this compound:
Form field: reported IC50 of `CCOC(=O)CCc1cnc(-c2cc(C)cc(Nc3nccc(C4CC4)n3)c2)cn1`
< 0.1 µM

* * *

Target or system: recombinant human GST-SYK (Homo sapiens)
Construct: purchased Carna Biosciences 08-176
Experiment summary: Homogeneous Time-Resolved Fluorescence (HTRF) assay for the recombinant human Syk enzyme
Format: biochemical
Measurement conditions: GST-hSYK 5 pM, ATP 25 μM, IC50 rated in classes, read-out: rhSYK Activity
Description: Homogeneous Time-Resolved Fluorescence (HTRF) Assay for the Recombinant Human Syk Enzyme A recombinant GST-hSYK fusion protein was used to measure potency of compounds to inhibit human Syk activity. […] The resulting HTRF signal was measured after 30 minutes on an EnVision (Perkin-Elmer) reader using a time-resolved fluorescence protocol.
pIC50: −log10 of the molar value.
Listed below: pIC50 values for each entry.

Form field: reported pIC50 of `CCOC(=O)CCc1cnc(-c2cccc(Nc3nccc(C(F)(F)F)n3)c2)cn1`
5.00 to 6.00

What do you get for Cc1cc(Nc2nccc(C(F)(F)F)n2)cc(-c2cnc(N3CCN(C)C(=O)C3C)nc2)c1 (stereo not drawn) ?
> 7.00
